# target.desc: E3 ubiquitin-protein ligase Mdm2 [23-117] (Human)
# Sequence (Q00987 23-117): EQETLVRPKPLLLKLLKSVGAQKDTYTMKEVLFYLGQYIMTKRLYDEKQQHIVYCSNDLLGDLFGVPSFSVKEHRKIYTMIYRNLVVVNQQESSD
assay.readout: IC50

I'd like to know its IC50. The compound in question is "O=C(O)c1ccc2c(c1)nc1n2CC[C@H]2[C@@H]1[C@H](c1cccc(Cl)c1F)[C@]1(C(=O)Nc3cc(Cl)ccc31)N2CC1CC1"
10 nM
